Values compiled from BigSolDB 2.1.

# experimental_conditions: in isopropanol, 283.15 K
assay_readout: solubility (mole fraction)

{"compound": "CC(C)(C)C(O)(CCc1ccc(Cl)cc1)Cn1cncn1 (stereo unspecified)", "assay_readout": "solubility (mole fraction)", "value_measured": 0.012}

* * *

# experimental_conditions: in 2-butanone, 278.15 K

{"compound": "CC(C)(C)C(O)(CCc1ccc(Cl)cc1)Cn1cncn1 (stereo unspecified)", "solubility (mole fraction)": 0.0404}

* * *

# experimental_conditions: in acetone, 278.15 K

{"compound": "CC(C)(C)C(O)(CCc1ccc(Cl)cc1)Cn1cncn1 (stereo unspecified)", "solubility (mole fraction)": 0.0304}

* * *

# experimental_conditions: in acetone, 293.15 K
assay_readout: solubility (mole fraction)

{"compound": "CC(C)(C)C(O)(CCc1ccc(Cl)cc1)Cn1cncn1 (stereo unspecified)", "assay_readout": "solubility (mole fraction)", "value_measured": 0.0562}

* * *

# experimental_conditions: in acetonitrile, 293.15 K

{"molecule": "CC(C)(C)C(O)(CCc1ccc(Cl)cc1)Cn1cncn1 (stereo unspecified)", "solubility (mole fraction)": 0.0107}

* * *

# experimental_conditions: in 2-butanone, 288.15 K
assay_readout: solubility (mole fraction)

{"molecule": "CC(C)(C)C(O)(CCc1ccc(Cl)cc1)Cn1cncn1 (stereo unspecified)", "assay_readout": "solubility (mole fraction)", "value_measured": 0.0569}

* * *

# experimental_conditions: in isopropanol, 288.15 K
assay_readout: solubility (mole fraction)

{"compound": "CC(C)(C)C(O)(CCc1ccc(Cl)cc1)Cn1cncn1 (stereo unspecified)", "value_measured": 0.0159}

* * *

# experimental_conditions: in isopropanol, 310.65 K

{"compound": "CC(C)(C)C(O)(CCc1ccc(Cl)cc1)Cn1cncn1 (stereo unspecified)", "solubility (mole fraction)": 0.0462}

* * *

# experimental_conditions: in 2-butanone, 298.15 K

{"compound": "CC(C)(C)C(O)(CCc1ccc(Cl)cc1)Cn1cncn1 (stereo unspecified)", "solubility (mole fraction)": 0.076}

* * *

# experimental_conditions: in ethyl acetate, 280.65 K

{"compound": "CC(C)(C)C(O)(CCc1ccc(Cl)cc1)Cn1cncn1 (stereo unspecified)", "solubility (mole fraction)": 0.027}

* * *

# experimental_conditions: in isopropanol, 295.65 K

{"molecule": "CC(C)(C)C(O)(CCc1ccc(Cl)cc1)Cn1cncn1 (stereo unspecified)", "solubility (mole fraction)": 0.023}

* * *

# experimental_conditions: in methanol, 300.65 K
assay_readout: solubility (mole fraction)

{"compound": "CC(C)(C)C(O)(CCc1ccc(Cl)cc1)Cn1cncn1 (stereo unspecified)", "value_measured": 0.0444}

* * *

# experimental_conditions: in 2-butanone, 310.65 K

{"molecule": "CC(C)(C)C(O)(CCc1ccc(Cl)cc1)Cn1cncn1 (stereo unspecified)", "solubility (mole fraction)": 0.106}

* * *

# experimental_conditions: in acetonitrile, 288.15 K

{"molecule": "CC(C)(C)C(O)(CCc1ccc(Cl)cc1)Cn1cncn1 (stereo unspecified)", "solubility (mole fraction)": 0.00838}

* * *

# experimental_conditions: in acetonitrile, 290.65 K

{"molecule": "CC(C)(C)C(O)(CCc1ccc(Cl)cc1)Cn1cncn1 (stereo unspecified)", "solubility (mole fraction)": 0.00942}

* * *

# experimental_conditions: in 2-butanone, 313.15 K
assay_readout: solubility (mole fraction)

{"compound": "CC(C)(C)C(O)(CCc1ccc(Cl)cc1)Cn1cncn1 (stereo unspecified)", "value_measured": 0.113}
